Experiment: in vitro
Details: human, hela cells, % viability
measure: viability at 28.5 h, 10 µM (%)
Form entry: value (%) — number only.

Measured viability at 28.5 h, 10 µM of "OC1(c2cccnc2F)CCN(Cc2ccc(F)c(F)c2)CC1" : 90

Measured viability at 28.5 h, 10 µM of "Cc1cnc2[nH]c(C(C)C)c(CN(C)C)c2c1" : 100

Measured viability at 28.5 h, 10 µM of "CC(=O)Nc1cccc(-n2nnnc2SCc2noc(C)n2)c1" : 90.9

Measured viability at 28.5 h, 10 µM of CC(=O)Nc1cccc(-c2nccnc2C2CCCN(CCc3ccccc3)C2)c1 (centres unmarked) : 110

Measured viability at 28.5 h, 10 µM of "CCCN(CCC)C(=O)c1nc(C)c(C(=O)N(CCC)CCC)nc1C" : 89.2

----------
I'd appreciate it if you could supply viability at 28.5 h, 10 µM values for the items below.
Assay: in vitro
Settings: human, hela cells, % viability
Form entry: value (%) — number only.

Measured viability at 28.5 h, 10 µM of O=C(c1nc2ccccc2s1)C1CCN(C(=O)CCc2ccc(-c3ccccc3)o2)CC1 [CBK286170] : 86.8

Measured viability at 28.5 h, 10 µM of O=C(Nc1ccccc1C(F)(F)F)N(Cc1ccccc1C(F)(F)F)CC1CCNCC1 [CBK049744] : 112

Measured viability at 28.5 h, 10 µM of O=C(O)COc1cccc(NC(=O)c2cc3ccccc3o2)c1 [CBK270071] : 90.3

Measured viability at 28.5 h, 10 µM of CC(Nc1oc(-c2ccco2)nc1S(=O)(=O)c1ccc(F)cc1)c1ccccc1 (centres unmarked) [CBK267671] : 73.2

Measured viability at 28.5 h, 10 µM of CCCC1(C)CCCN(Cc2nnnn2-c2ccc(S(C)(=O)=O)cc2)C1 (centres unmarked) [CBK304133] : 79.8

----------
Experiment: in vitro
Conditions: human, hela cells, % viability
I'd appreciate it if you could supply viability at 28.5 h, 10 µM values for the items below.
Form entry: value (%) — number only.

Measured viability at 28.5 h, 10 µM of CC(C)(N)C(=O)N1CC(C(=O)NCCN(Cc2ccccc2)S(C)(=O)=O)C(c2ccccc2)C1 (centres unmarked) [CBK014706T] : 93.3

Measured viability at 28.5 h, 10 µM of CS(=O)(=O)N1CC2(CCN(CCCCC3NC(=O)NC3=O)CC2)c2ccccc21 (centres unmarked) [CBK126684] : 97.1

Measured viability at 28.5 h, 10 µM of Cn1cc(C(=O)N2CCOCC2c2nc(-c3cccs3)no2)cn1 (centres unmarked) [CBK305422] : 113

Measured viability at 28.5 h, 10 µM of Cn1cccc1C(=O)N[C@H]1CCN2C(=O)N(c3cccc(F)c3)C(=O)[C@@H]2C1 [CBK289549] : 88.8

Measured viability at 28.5 h, 10 µM of O=C(c1ccco1)N1CCN(S(=O)(=O)c2ccc3c(c2)C(=NO)c2cc(S(=O)(=O)N4CCN(C(=O)c5ccco5)CC4)ccc2-3)CC1 [CBK262103] : 104

Measured viability at 28.5 h, 10 µM of COc1ccc(CCN2CCN(c3nccnc3OCC3COc4ccccc4O3)CC2)cc1OC (centres unmarked) [CBK082808T] : 104

Measured viability at 28.5 h, 10 µM of Nc1ncc(CN(Cc2ccco2)CC(O)Cn2c3ccccc3c3ccccc32)cn1 (centres unmarked) [CBK286462] : 88.6

Measured viability at 28.5 h, 10 µM of Cc1cnc(CNC(=O)Cn2nnc(-c3ccc(CN4CCC(C)CC4)cc3)n2)cn1 [CBK137067C] : 101

Reference source for all entries: paper PMC12040169
